Note to self: these molecules have Ki reported for Retinoic acid receptor RXR-beta (Homo sapiens) in various publications.

{"columns": ["structure_string", "Ki [nM]"],
 "data": [
  ["CCN(c1ccc(C(=O)O)cc1)c1ccc2c(c1)N(C(C)C)CCC2(C)C", 57],
  ["CCN(c1ccc(C(=O)O)cc1)c1ccc2c(c1)C(C)(C)CCN2C(C)C", 273],
  ["CC/C(=C(F)/C=C/C(C)=C/C(=O)O)c1cc(C(C)C)cc2c1N(CC)CCC2(C)C", 21],
  ["CCN(c1ccc(C(=O)O)cc1)c1cc2c(cc1C)C(C)(C)CCN2C(C)C", 99],
  ["CC/C(=C(F)/C=C/C(C)=C(\\F)C(=O)O)c1cc2c(cc1OCOC)C(C)(C)CCC2(C)C", 60],
  ["CCN1CCC(C)(C)c2cc(C(C)C)cc(\\C(C)=C(F)/C=C/C(C)=C/C(=O)O)c21", 11],
  ["CC(C)N1CCC(C)(C)c2ccc(N(CC3CC3)c3ccc(C(=O)O)cc3)cc21", 42],
  ["CCCOc1cc2c(cc1\\C(C)=C(F)/C=C/C(C)=C(\\F)C(=O)O)C(C)(C)CCC2(C)C", 65]
]}
